B1: Hairpin Ribozyme (parent)
chain: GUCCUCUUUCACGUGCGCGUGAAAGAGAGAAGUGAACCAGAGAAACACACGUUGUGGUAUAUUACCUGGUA

Variants of: B1
Test: self-cleavage, relative activity (ratio to wild type); higher = more cleavage; co-transcriptional
experimental.readout: self-cleavage

residue.change | result
G32U G51U | 0.119
A24U G40A | 0.281
A24U U53G | 0.674
G21A C50A | 0.306
U33G A41C | 0.156
U14G U70A | 0.823
G25C C66U | 0.182
G1U A49G | 0.234
G69C | 0.289
C6U U53C | 0.704
A49G G57U | 0.22
G40A A41C | 0.274
U55G U67C | 0.181
A64C G68A | 0.18
G25C G69U | 0.199
A59U U70G | 0.159
C6U A35C | 0.896
A44C C46G | 0.0995
A26G C48A | 0.13
C6G A26G | 0.203
G34A U60A | 1.13
C10U A45G | 0.0999
G34C C38U | 1.28
G15U U70G | 0.873
G32U G69U | 0.0924
A11C G69C | 0.182
U52C C66G | 0.244
A41C U55A | 0.405
G15U A49G | 0.539
C16U | 1.04
G32U A61U | 0.109
C10A U14C | 0.888
A44G U53C | 0.248
C6G C50U | 0.265
C4A U55C | 0.0693
C12U G32U | 0.082
G21A A41U | 1.07
U14A A64U | 0.171
A31U A36U | 0.121
A41G G69A | 0.411
A39G C48A | 0.0878
G29A A49G | 0.138
C3G A23G | 0.126
U53C A59C | 0.217
C38A U63G | 0.165
U52C G57A | 0.223
